# System: RAT BONE MARROW CELLS
# measurement.notes: Inhibition of thymidine incorporation into DNA
# Assay type: cell-based
# condition.notes: Bone marrow cell, read-out: ED50 FOR […] INC[…] DNA, RAT BONE MARROW CELLS, read-out: ED50 FOR INHIBITING THYMIDINE INCORPORATION INTO DNA, RAT BONE MARROW CELLS
recorded.endpoint: pEC50
Reminder that pEC50 means the negative base-10 logarithm of the concentration expressed in mol/L.

QUERY: Recorded pEC50 for CCc1cn([C@@H]2O[C@H](CO)[C@@H](O)[C@@H]2F)c(=O)[nH]c1=O , please?
RESULT: 2.43
